- test_system: PEX14 16-84, O75381
- Sequence (O75381 16-84): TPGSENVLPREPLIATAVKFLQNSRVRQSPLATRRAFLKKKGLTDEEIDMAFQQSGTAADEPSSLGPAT
attribute_measured: selected by phage display

Example results:
binder	selected by phage display
PPPSPEDLAELWGHGV [CHTF18, Q8WVB6]	confidence 3 (active)
ELEEEWLKEAGLSNLF [ARHGAP18, Q8N392]	confidence 2 (active)
LNSYEAEWDMVNTVSF [TBC1D15, Q8TC07]	confidence 2 (active)
WSLELEDQERHFLQQA [NUP62, P37198]	confidence 2 (active)

Batch lookup, selected by phage display per entry.
1. ELHHIWQSQQRLQPVA [IRF5, Q13568]
2. STPLPEPHIDLELVWR [C9orf131, Q5VYM1]

**Result**
confidence 3 (active)
confidence 2 (active)
